Biological target: Ribosomal protein S6 kinase alpha-1 (Homo sapiens, UniProt Q15418)
Sequence (Q15418 whole entry): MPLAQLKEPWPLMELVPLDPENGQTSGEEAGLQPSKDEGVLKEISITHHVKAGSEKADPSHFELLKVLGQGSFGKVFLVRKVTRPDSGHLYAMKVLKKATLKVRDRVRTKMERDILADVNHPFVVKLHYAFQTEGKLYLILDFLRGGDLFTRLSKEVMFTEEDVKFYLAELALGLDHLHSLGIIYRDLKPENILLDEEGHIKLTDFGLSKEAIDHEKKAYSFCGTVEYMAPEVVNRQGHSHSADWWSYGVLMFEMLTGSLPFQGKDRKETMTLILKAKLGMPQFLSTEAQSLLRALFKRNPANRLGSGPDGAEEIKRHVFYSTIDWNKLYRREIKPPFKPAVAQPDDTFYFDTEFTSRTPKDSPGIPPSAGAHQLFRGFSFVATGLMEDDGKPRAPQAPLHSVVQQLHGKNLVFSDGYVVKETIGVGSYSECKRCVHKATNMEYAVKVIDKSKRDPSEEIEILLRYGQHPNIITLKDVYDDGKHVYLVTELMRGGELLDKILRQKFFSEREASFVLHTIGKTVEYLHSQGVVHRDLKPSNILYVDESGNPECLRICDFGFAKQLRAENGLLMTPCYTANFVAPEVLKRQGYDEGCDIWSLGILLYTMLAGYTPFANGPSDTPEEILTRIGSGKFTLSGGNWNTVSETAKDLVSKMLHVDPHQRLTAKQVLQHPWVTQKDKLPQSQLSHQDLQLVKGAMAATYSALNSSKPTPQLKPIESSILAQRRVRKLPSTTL
pIC50: −log10 of the molar value.
quantityName: pIC50

[[record]]
molecularstring = "COc1cccc(Cn2cnc3ccc(-c4cn[nH]c4)cc3c2=O)c1"
quantityname = "pIC50"
recordednumber = 6.32


---

Molecular target: G protein-coupled receptor kinase 5 (Homo sapiens, UniProt P34947)
Sequence (P34947 whole entry): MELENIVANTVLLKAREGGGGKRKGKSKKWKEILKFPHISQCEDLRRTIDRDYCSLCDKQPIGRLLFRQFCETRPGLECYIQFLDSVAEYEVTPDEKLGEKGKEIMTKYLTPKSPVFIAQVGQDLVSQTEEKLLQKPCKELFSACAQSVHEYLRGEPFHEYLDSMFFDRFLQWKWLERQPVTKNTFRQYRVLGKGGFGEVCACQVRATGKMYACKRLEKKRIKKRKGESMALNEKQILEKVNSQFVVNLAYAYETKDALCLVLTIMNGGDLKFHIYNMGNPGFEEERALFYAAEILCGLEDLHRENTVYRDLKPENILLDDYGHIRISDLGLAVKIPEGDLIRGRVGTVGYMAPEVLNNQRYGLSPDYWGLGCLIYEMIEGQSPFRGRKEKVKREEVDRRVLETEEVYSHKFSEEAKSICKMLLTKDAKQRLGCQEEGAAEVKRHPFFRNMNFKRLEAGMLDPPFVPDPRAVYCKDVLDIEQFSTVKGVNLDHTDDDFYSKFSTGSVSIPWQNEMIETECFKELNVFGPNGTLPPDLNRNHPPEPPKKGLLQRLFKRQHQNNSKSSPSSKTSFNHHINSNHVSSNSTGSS
pKd: −log10 of the molar value.
quantityName: pKd

[[record]]
molecularstring = "O=c1c2cc(-c3ccncc3)ccc2ncn1Cc1ccccc1"
quantityname = "pKd"
result = "< 4.08"


---

Measured pIC50, listed per entry.
Assay: Inhibition of protein kinase A (unknown origin)
Parameters: species or system Homo sapiens
pIC50: −log10 of the molar value.
quantityName: pIC50

[[record]]
molecularstring = "COc1cccc(Cn2ncc3ccc(-c4cn[nH]c4)cc3c2=O)c1"
quantityname = "pIC50"
recordednumber = 5.31

[[record]]
molecularstring = "COc1cccc(Cn2cnc3ccc(-c4cn[nH]c4)cc3c2=O)c1"
quantityname = "pIC50"
recordednumber = 6.07


---

Experiment: Half life in C57BL mouse at 2 mg/kg, iv administered as single dose
Type: ADME, organism-based
Conditions: in vivo
quantityName: half-life

[[record]]
molecularstring = "COc1cccc(Cn2ncc3ccc(-c4cn[nH]c4)cc3c2=O)c1"
quantityname = "half-life"
result = "1.01 h"


---

Test: Apparent permeability across apical to basal side in MDCK-MDR1 cells
Type: ADME, cell-based, Canis lupus familiaris
Settings: dog
The label depends only on Papp A→B: fulfilled if it is at least 10 ×10⁻⁶ cm/s, not fulfilled if it is smaller.

[[record]]
compound = "COc1cccc(Cn2ncc3ccc(-c4cn[nH]c4)cc3c2=O)c1"
discretelabel = "fulfilled"

[[record]]
compound = "COc1cccc(Cn2cnc3ccc(-c4cn[nH]c4)cc3c2=O)c1"
discretelabel = "fulfilled"

[[record]]
compound = "COc1ccc(Cn2cnc3ccc(-c4cn[nH]c4)cc3c2=O)cc1F"
discretelabel = "fulfilled"

[[record]]
compound = "O=C(NCc1c(F)cccc1F)c1ccc(Cn2cnc3ccc(-c4cn[nH]c4)cc3c2=O)cc1"
discretelabel = "not fulfilled"

[[record]]
compound = "O=c1c2cc(-c3cn[nH]c3)ccc2ncn1Cc1cccc(OC(F)F)c1"
discretelabel = "fulfilled"

[[record]]
compound = "COc1cccc([C@@H](C)n2cnc3ccc(-c4cn[nH]c4)cc3c2=O)c1"
discretelabel = "fulfilled"

[[record]]
compound = "O=c1c2cc(-c3cn[nH]c3)ccc2ncn1Cc1cccc(Oc2ccc(F)cc2)c1"
discretelabel = "not fulfilled"

[[record]]
compound = "O=C(NCc1ccc(F)cc1)c1cccc(Cn2cnc3ccc(-c4cn[nH]c4)cc3c2=O)c1"
discretelabel = "not fulfilled"

[[record]]
compound = "CNCCC(c1cccc(OC)c1)n1cnc2ccc(-c3cn[nH]c3)cc2c1=O (racemic)"
discretelabel = "not fulfilled"

[[record]]
compound = "O=C(Nc1ccc(F)cc1)c1cccc(Cn2cnc3ccc(-c4cn[nH]c4)cc3c2=O)c1"
discretelabel = "not fulfilled"

[[record]]
compound = "O=C(NCc1c(F)cccc1F)c1cccc(Cn2cnc3ccc(-c4cn[nH]c4)cc3c2=O)c1"
discretelabel = "not fulfilled"


---

Assay: Cmax in C57BL mouse at 2 mg/kg, iv or 10 mg/kg, po administered as single dose
Format: ADME, organism-based
Design: dose 10 mg/kg
Settings: in vivo
quantityName: Cmax (µM)

[[record]]
molecularstring = "COc1cccc(Cn2ncc3ccc(-c4cn[nH]c4)cc3c2=O)c1"
recordednumber = 4.96

